Record form. Attribute: melting point. Fill in for each entry.

Request: I am curious: what melting point value has been reported for C[C@H](CCC(=O)NCc1cn(CC(=O)c2ccc(Cl)cc2)nn1)C1CCC2C3C(C[C@H](O)[C@@]21C)[C@@]1(C)CC[C@@H](O)CC1C[C@H]3O (stereo partly drawn) [6ce] ?
Result: 154 to 155 °C

Request: // melting point lookup, key: Cc1ccc(C(=O)Cn2cc(CNC(=O)CC[C@@H](C)C3CCC4C5C(C[C@H](O)[C@@]43C)[C@@]3(C)CC[C@@H](O)CC3C[C@H]5O)nn2)cc1 (stereo partly drawn) [6cb]
Result: 129 to 131 °C

Request: What does the record list as melting point for COc1ccc(C(=O)Cn2cc(COC(=O)CC[C@@H](C)C3CCC4C5C(C[C@H](O)[C@@]43C)[C@@]3(C)CC[C@@H](O)CC3C[C@H]5O)nn2)cc1 (stereo partly drawn) [6ac] ?
Result: 176 to 177 °C

Request: So what does the record say about melting point for C[C@H](CCC(=O)NCc1cn(CC(=O)c2ccccc2)nn1)C1CCC2C3C(C[C@H](O)[C@@]21C)[C@@]1(C)CC[C@@H](O)CC1C[C@H]3O (stereo partly drawn) [6ca] ?
Result: 148 to 149 °C

Request: What melting point value was documented for this compound, C[C@H](CCC(=O)NCc1cn(CC(=O)c2ccc(Br)cc2)nn1)C1CCC2C3CCC4C[C@H](O)CC[C@]4(C)C3C[C@H](O)[C@@]21C (stereo partly drawn) [6df] ?
Result: 135 to 136 °C

Request: # lookup: melting point of C[C@H](CCC(=O)OCc1cn(CC(=O)c2ccc(Br)cc2)nn1)C1CCC2C3C(C[C@H](O)[C@@]21C)[C@@]1(C)CC[C@@H](O)CC1C[C@H]3O (stereo partly drawn) [6af]
Result: 159 to 160 °C

Request: Which melting point is listed for Cc1ccc(C(=O)Cn2cc(CNC(=O)CC[C@@H](C)C3CCC4C5CCC6C[C@H](O)CC[C@]6(C)C5C[C@H](O)[C@@]43C)nn2)cc1 (stereo partly drawn) [6db] ?
Result: 112 to 115 °C

Request: Please look up its melting point: C[C@H](CCC(=O)NCc1cn(CC(=O)c2ccc(F)cc2)nn1)C1CCC2C3CCC4C[C@H](O)CC[C@]4(C)C3C[C@H](O)[C@@]21C (stereo partly drawn) [6dd]
Result: 126 to 127 °C

Request: Entry under review: C[C@H](CCC(=O)OCc1cn(CC(=O)c2ccc(Cl)cc2)nn1)C1CCC2C3CCC4C[C@H](O)CC[C@]4(C)C3C[C@H](O)[C@@]21C (stereo partly drawn) [6be] . Reported melting point?
Result: 92 to 93 °C

Request: Bench note: what melting point did C[C@H](CCC(=O)NCc1cn(CC(=O)c2ccc(Cl)cc2)nn1)C1CCC2C3CCC4C[C@H](O)CC[C@]4(C)C3C[C@H](O)[C@@]21C (stereo partly drawn) [6de] show?
Result: 100 to 101 °C

Request: # lookup: melting point of C[C@H](CCC(=O)NCc1cn(CC(=O)c2ccc(F)cc2)nn1)C1CCC2C3C(C[C@H](O)[C@@]21C)[C@@]1(C)CC[C@@H](O)CC1C[C@H]3O (stereo partly drawn) [6cd]
Result: 137 to 138 °C

Request: State the recorded melting point for this entry: C[C@H](CCC(=O)OCc1cn(CC(=O)c2ccccc2)nn1)C1CCC2C3C(C[C@H](O)[C@@]21C)[C@@]1(C)CC[C@@H](O)CC1C[C@H]3O (stereo partly drawn) [6aa]
Result: 108 to 109 °C
